- Tested on: SR leukemia
- ASSAY INFO: NCI tumour cell line growth inhibition, 48 h; in the data active means GI50 below about 0.43 µM; inactive means the rest
Possible outcomes: 1.0 = active, 0.0 = inactive

                                   compound          tgt  class_label
0  CCOc1cc(/C=C/C(=O)CC(=O)/C=C/c2ccc(OC(=O)CNc3nc4ccc(OC)cc4s3)c(OCC)c2)ccc1OC(=O)CNc1nc2ccc(OC)cc2s1  SR leukemia          0.0
1  Oc1ccc(CCNc2nc3ccccc3c3[nH]c4ccccc4c23)cc1O  SR leukemia          0.0
2  CCN(Cc1ccccc1)c1ccc(/C=C2\COc3ccccc3C2=O)cc1  SR leukemia          0.0
3  Cc1ccc(NC(=O)c2ccoc2)cc1-c1ccc(C(=O)NCC2CC2)cc1  SR leukemia          0.0
4  COc1cccc2c1C(=O)c1c(O)c3c(c(O)c1C2=O)C[C@@](O)(C(=O)CO)C[C@@H]3OC1CC(N2CCOCC2)C(O)C(C)O1 (some centres not stated)  SR leukemia          1.0
5  CC(=O)Nc1ccc(CC[C@H]2CCC/C=C/[C@@H]3C[C@H](O)C[C@H]3[C@H](O)/C=C/C(=O)O2)cc1  SR leukemia          1.0
6  N#CSc1c[nH]c2ccc(/C=C/C(=O)/C=C(O)/C=C/c3ccc4[nH]cc(SC#N)c4c3)cc12  SR leukemia          0.0

* * *

- System: ACHN renal
- ASSAY INFO: NCI tumour cell line growth inhibition, 48 h; in the data active = GI50 below about 0.43 µM; inactive = the rest
Possible outcomes: active, inactive

>>> print(df.to_string())
                                    compound         tgt  class_label
 0  COc1ccc2c(c1)c(-c1ccc(-c3cn(C)c4ccc(OC)cc34)s1)cn2C  ACHN renal     inactive
 1  CCCCCCCCCCCC(c1ccccc1)[N+](C)(C)C (centres undefined)  ACHN renal     inactive
 2  CCN(CC)CCN1C(=O)C2C3C(C)=CC(OC(C)=O)(CC3C)C2C1=O (centres undefined)  ACHN renal     inactive
 3  CC[O-].CC[O-].[O-]c1ccccc1C=NC12CC3CC(CC(C3)C1)C2.[O-]c1ccccc1C=NC12CC3CC(CC(C3)C1)C2.[Ti+4]  ACHN renal     inactive
 4  CCCN1CCC(Oc2cc(Nc3nc(Nc4cccc(F)c4C(N)=O)c4cc[nH]c4n3)c(OC)cc2Cl)CC1  ACHN renal     inactive
 5  CN1CCC2(CC1)C(=O)Nc1cc(NC(=O)c3ccc4c(c3)C[C@@H]3C(C)(C)[C@H](O)[C@H](F)C[C@@]3(C)O4)ccc12  ACHN renal     inactive
 6  Nc1nc(N)c2cc(S(=O)(=O)c3cccc(C(F)(F)F)c3)ccc2n1  ACHN renal     inactive
 7  COc1cc2c(cc1OCCCCCOc1ccc(-c3nc4ccccc4s3)cc1)N=C[C@@H]1CCCN1C2=O  ACHN renal     inactive
 8  C=CC(=O)N1CCN([C@@H](CC2CC2)c2ccc([C@H](C)Nc3ncc4c(n3)N(CC)C(=O)OC4)cc2)CC1  ACHN renal     inactive
 9  CCn1c(-c2nonc2N)nc2cnc(Oc3cccc(NC(=O)c4ccc(OCCN5CCOCC5)cc4)c3)cc21  ACHN renal     inactive
10  [O-]c1ccccc1C=NCCN=Cc1ccccc1[O-].[O]=[U+2]=[O]  ACHN renal     inactive
11  CN1CCN(c2ccc3nc(-c4[nH]ncc4Nc4ncnc5[nH]ccc45)[nH]c3c2)CC1  ACHN renal       active
12  c1ccc2[nH]c(-c3ccc(Nc4nc(N5CCCC5)nc5[nH]ncc45)cc3)nc2c1  ACHN renal       active
13  C=CCn1c(SCC(=O)Nc2ccc(C(=O)/C=C/c3cc(OC)c(OC)c(OC)c3)cc2)nnc1-c1cc(OC)c(OC)c(OC)c1  ACHN renal     inactive

Origin of measurements: PubChem BioAssay (NCI)
